Attribution: PubChem BioAssay AID489030

# inhibition annotations
# system.under.test: Apoptotic protease-activating factor 1 (Homo sapiens) (UniProt O14727)
# Sequence (O14727 whole entry, looked up): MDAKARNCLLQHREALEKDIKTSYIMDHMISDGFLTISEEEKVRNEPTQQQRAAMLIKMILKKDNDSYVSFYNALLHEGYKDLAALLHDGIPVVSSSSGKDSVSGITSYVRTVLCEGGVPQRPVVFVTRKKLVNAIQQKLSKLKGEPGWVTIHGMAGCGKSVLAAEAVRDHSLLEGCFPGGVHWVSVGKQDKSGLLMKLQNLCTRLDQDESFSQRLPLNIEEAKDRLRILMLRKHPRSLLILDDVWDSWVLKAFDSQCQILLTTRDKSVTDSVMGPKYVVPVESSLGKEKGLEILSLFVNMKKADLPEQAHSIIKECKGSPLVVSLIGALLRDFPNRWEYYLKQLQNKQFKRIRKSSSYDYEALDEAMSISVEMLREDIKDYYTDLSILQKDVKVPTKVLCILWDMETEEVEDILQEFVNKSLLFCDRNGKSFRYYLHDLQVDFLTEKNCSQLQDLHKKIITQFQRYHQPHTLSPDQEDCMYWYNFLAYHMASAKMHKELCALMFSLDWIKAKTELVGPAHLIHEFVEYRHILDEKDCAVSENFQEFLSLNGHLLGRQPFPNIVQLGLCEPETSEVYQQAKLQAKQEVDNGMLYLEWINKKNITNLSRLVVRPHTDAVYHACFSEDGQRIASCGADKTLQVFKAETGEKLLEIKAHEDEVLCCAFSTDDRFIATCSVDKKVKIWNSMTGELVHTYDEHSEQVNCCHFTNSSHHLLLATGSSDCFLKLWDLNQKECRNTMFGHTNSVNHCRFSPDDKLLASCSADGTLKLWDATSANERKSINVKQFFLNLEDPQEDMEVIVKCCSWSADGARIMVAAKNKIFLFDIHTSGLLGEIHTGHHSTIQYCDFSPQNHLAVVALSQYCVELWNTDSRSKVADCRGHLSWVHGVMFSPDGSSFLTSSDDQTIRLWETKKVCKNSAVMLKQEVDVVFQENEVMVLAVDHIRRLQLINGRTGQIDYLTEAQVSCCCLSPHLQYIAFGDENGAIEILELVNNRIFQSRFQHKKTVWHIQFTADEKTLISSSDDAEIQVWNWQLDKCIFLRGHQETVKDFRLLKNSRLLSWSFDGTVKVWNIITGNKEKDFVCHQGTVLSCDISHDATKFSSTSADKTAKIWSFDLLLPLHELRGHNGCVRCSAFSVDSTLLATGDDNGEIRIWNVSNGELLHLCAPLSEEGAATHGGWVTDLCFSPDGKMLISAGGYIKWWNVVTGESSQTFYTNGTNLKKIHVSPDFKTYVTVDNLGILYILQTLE
# procedure.text: blockers of Apaf-1-driven caspase-3 activation – biochemical, DEVD-Rh110 fluorescence, uHTS, primary screen (AID 489030);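 note: plate controls were DMSO wells for no effect and DEVD-CHO caspase inhibitor wells for full effect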
# condition.set: reconstituted apoptosome caspase-3 activity, at 20 µM, stronger effect = higher value
Out of some 330,000 compounds screened, about 2,400 (0.73%) were called active. What follows is part of a selection rich in actives, with near analogues and random picks from the rest.

• O=C(Nc1cccc(Cl)c1Cl)c1ccccc1NC(=O)C1CC=CCC1C(=O)O (stereo unspecified) = -3.06% (inactive)

// query Please give the documented inhibition of `Oc1ccc(/C=N/N(Cc2ccccc2)c2ccccc2)cc1`
// result 8.85% (inactive)

// query Please give the documented inhibition of `Oc1ccc(N=Cc2c(O)ccc3ccccc23)cc1`
// result 87.2% (active)

// query Please give the documented inhibition of `Cc1cc(N=Nc2ccc3ccccc3c2)ccc1O`
// result 4.6% (inactive)

// query Please give the documented inhibition of `Oc1ccc(N=Cc2sc3ccccc3c2Cl)cc1`
// result 64.8% (active)

// query Please give the documented inhibition of `Cc1ccc(Cl)c(OCC(=O)N(C)CC(=O)Nc2ccc(N3CCOCC3)cc2)c1`
// result 7.19% (inactive)

---

# system.under.test: Apoptotic protease-activating factor 1 (Homo sapiens) (UniProt O14727)
# procedure.text: blockers of Apaf-1-driven caspase-3 activation – biochemical, DEVD-Rh110 fluorescence, uHTS, primary screen (AID 489030)
# condition.set: reconstituted apoptosome caspase-3 activity, at 20 µM, stronger effect = higher value
Out of some 330,000 compounds screened, about 2,400 (0.73%) were called active. The full list was thinned out, with actives kept by preference.
measured.parameter: inhibition

- C#CCOCCOCCOCCNc1nc(N2CCN(C(=O)Cn3cc(CCCCN)nn3)CC2)nc(N2CCN(C(=O)[C@H](CCCCN)n3cc(CCC(=O)O)nn3)CC2)n1: 2.29% (inactive)
- C#CCOCCOCCOCCNc1nc(N2CCN(C(=O)CCCCCCCCCCNC(=O)Cn3cc(CCCCCN)nn3)CC2)nc(N2CCN(C(=O)CCCCCCCCCCNC(=O)[C@H](CO)n3cc(CCCSC)nn3)CC2)n1: 60.7% (active)
- C#CCOCCOCCOCCNc1nc(N2CCN(C(=O)CCCCCCCCCCNC(=O)[C@H]([C@@H](C)CC)n3cc(CCCCN=C(N)N)nn3)CC2)nc(N2CCN(C(=O)CCCCCCCCCCNC(=O)[C@H](CO)n3cc(CCCSC)nn3)CC2)n1: 59.2% (active)
- C#CCOCCOCCOCCNc1nc(N2CCN(C(=O)C([C@@H](C)O)n3cc([C@@H](N)CCCCN)nn3)CC2)nc(N2CCN(C(=O)[C@H](CCCCN)n3cc(CN)nn3)CC2)n1 (stereo not given in full): 42.2% (active)

Lab note: next compound to report on.
// query Please give the documented inhibition of C#CCOCCOCCOCCNc1nc(N2CCN(C(=O)[C@H](CCC(=O)O)n3cc(C(N)CO)nn3)CC2)nc(N2CCN(C(=O)[C@H](CCCCN)n3cc(C(N)[C@H](C)CC)nn3)CC2)n1 (stereo not given in full)
// result 20.3% (inactive)

---

# system.under.test: Apoptotic protease-activating factor 1 (Homo sapiens) (UniProt O14727)
# procedure.text: blockers of Apaf-1-driven caspase-3 activation – biochemical, DEVD-Rh110 fluorescence, uHTS, primary screen (AID 489030)
# condition.set: reconstituted apoptosome caspase-3 activity, at 20 µM, stronger effect = higher value
About 2,400 (0.73%) of roughly 330,000 compounds were called active. The list comes from a sample in which actives are over-represented; it also holds close analogues and randomly drawn compounds.
# inhibition annotations
Report the figure in % without appending any unit label.

• CCCCc1nc2cc(C(=O)N3CCCCC3CCO)ccc2o1 (stereo unspecified) = 5.2
• CCOC(=O)Cn1nnnc1C = -24.4
• Cc1ccc(OCCNC(=O)CCNS(=O)(=O)c2ccc(Br)cc2)cc1 = 11.6
• COC(=O)c1ccc(N2CCOCC2)c(NC(=O)c2ccc(Br)o2)c1 = -17.7
• CC1CCN(C(=O)COC(=O)c2cc(S(=O)(=O)N3CCOCC3)ccc2Cl)CC1 = 3.82
• Cc1ccc(S(=O)(=O)c2c(N)n(C)c3nc4ccccc4nc23)cc1 = -405
• Cc1ccc(C(C)C)c(OCc2nnc(SCC(=O)Nc3nccs3)n2C)c1 = 11.4
• CN(CC(=O)Nc1ccc(F)cc1)C(=O)c1ccc(-c2ccc(Cl)cc2)o1 = 22

// query Find the measured inhibition of `CCOC(=O)N1CCC(NC(=O)Cc2cn(C)c3ccccc23)CC1` with Apoptotic protease-activating factor 1 (Homo sapiens) (UniProt O14727) as test system.
// result 3.3

// query Find the measured inhibition of `COc1ccc(OCCNC(=O)c2cc(C3CC3)nc3c2cnn3C(C)C)cc1` with Apoptotic protease-activating factor 1 (Homo sapiens) (UniProt O14727) as test system.
// result 15

// query Find the measured inhibition of `Cn1c(=O)n(C)c2cc(NS(=O)(=O)c3ccc(F)cc3)ccc21` with Apoptotic protease-activating factor 1 (Homo sapiens) (UniProt O14727) as test system.
// result 1.91

---

# system.under.test: Apoptotic protease-activating factor 1 (Homo sapiens)
# procedure.text: blockers of Apaf-1-driven caspase-3 activation – biochemical, DEVD-Rh110 fluorescence, uHTS, primary screen (AID 489030);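 note: plate controls were DMSO wells for no effect and DEVD-CHO caspase inhibitor wells for full effect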
# condition.set: reconstituted apoptosome caspase-3 activity, at 20 µM
Out of some 330,000 compounds screened, about 2,400 (0.73%) were called active. How the source made its calls: active means inhibition of at least 40% at 20 µM; inactive means the rest. The sample as a whole holds a higher share of actives than the screen did.
Pick one: 1 = active, 0 = inactive

Past entries and their recorded results:
• COCCNc1nc(-n2nc(C)cc2C)nc2sc3c(c12)CCCC3 = 0
• Cc1cc2oc3ccc(NCCC4CCCN4C)cc3c(=O)c2cc1C (stereo not given) = 1
• O=C(COc1ccc(S(=O)(=O)NCCc2ccccc2)cc1)N1CCCC1 = 0
• CC(=O)OC(COc1ccc(F)cc1)Cn1cnc2ccccc21 (stereo not given) = 0

// query Fill in: this test's call for `CCCCn1c(N)c(N(CC(C)C)C(=O)c2cccc(S(=O)(=O)N3CCN(C(C)=O)CC3)c2)c(=O)[nH]c1=O` is ___
// result 0

---

# inhibition annotations
# system.under.test: Apoptotic protease-activating factor 1 (Homo sapiens) (UniProt O14727)
# procedure.text: blockers of Apaf-1-driven caspase-3 activation – biochemical, DEVD-Rh110 fluorescence, uHTS, primary screen (AID 489030);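 note: plate controls were DMSO wells for no effect and DEVD-CHO caspase inhibitor wells for full effect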
# condition.set: reconstituted apoptosome caspase-3 activity, at 20 µM, stronger effect = higher value
Among all 330,000 compounds or so, about 2,400 (0.73%) were called active. For the sample, actives were picked, then their nearest neighbours and some compounds at random.
Report the figure in % without appending any unit label.

• CCC(CC)c1nnc(NC(=O)C2=COCCO2)s1 = 3.27
• CSc1ccc(CCNC(=O)C2CCN(c3nnc(-n4cccc4)s3)CC2)cc1 = 0.72

// query Please give the documented inhibition of `CCc1nc(C)ccc1OCC(=O)N(CC)CC`
// result -18.1

---

# system.under.test: Apoptotic protease-activating factor 1 (Homo sapiens) (UniProt O14727)
# procedure.text: blockers of Apaf-1-driven caspase-3 activation – biochemical, DEVD-Rh110 fluorescence, uHTS, primary screen (AID 489030);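 note: plate controls were DMSO wells for no effect and DEVD-CHO caspase inhibitor wells for full effect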
# condition.set: reconstituted apoptosome caspase-3 activity, at 20 µM
Among all 330,000 compounds or so, about 2,400 (0.73%) were called active. Rule for the calls: active = inhibition of at least 40% at 20 µM; inactive = the rest. The entries come from a sample that favours actives as a whole.
Pick one: 1 = active, 0 = inactive

Past entries and their recorded results:
* CCC(CO)Oc1cc(NC(=O)c2ccc(Cl)cc2)c2ncn(C(C)C)c2c1 (centres undefined) | 0
* COc1ccc2nc(N3CCN(C(=O)c4ccc([N+](=O)[O-])o4)CC3)sc2c1 | 0
* O=C(NCc1ccccc1Cl)C1CCN(c2ncnc3c2nc2n3CCCCC2)CC1 | 0
* CCC(CO)Oc1cc(NC(=O)c2cccc(F)c2)c2ncn(C(C)C)c2c1 (centres undefined) | 0
* CC(C)n1cnc2c(NCc3ccccc3)cc(OCC3CCN(C)CC3)cc21 | 1
* COc1ccc(-n2nc3c(N4CCC(C(=O)NCc5ccccc5)CC4)nnc(C)c3c2C)cc1 | 0
* CCOc1ccc(CNC(=O)C2CCCN(c3nnc(C)c4c(C)n(-c5ccccc5)nc34)C2)cc1 (centres undefined) | 0
* CC(C)n1cnc2c(NCc3ccccc3)cc(N[C@@H](CO)Cc3ccccc3)cc21 | 1

Now consider a different compound.
// query Fill in: this test's call for `C=CCC[C@H](Cc1ccc(F)cc1)C(=O)OC[C@@H](NC(=O)[C@@H](CC=C)CC(=O)N[C@H](CO)Cc1ccccc1)C(C)(C)C` is ___
// result 1
